# ASSAY SYSTEM: 1-deoxy-D-xylulose 5-phosphate reductoisomerase (Escherichia coli, UniProt P45568)
# Construct: made in house; host or cells: E. coli M15/pREP4
# Sequence (P45568 whole entry R277V/T278R/P279Q/I280L/A281P/H282T/T283P/M284W): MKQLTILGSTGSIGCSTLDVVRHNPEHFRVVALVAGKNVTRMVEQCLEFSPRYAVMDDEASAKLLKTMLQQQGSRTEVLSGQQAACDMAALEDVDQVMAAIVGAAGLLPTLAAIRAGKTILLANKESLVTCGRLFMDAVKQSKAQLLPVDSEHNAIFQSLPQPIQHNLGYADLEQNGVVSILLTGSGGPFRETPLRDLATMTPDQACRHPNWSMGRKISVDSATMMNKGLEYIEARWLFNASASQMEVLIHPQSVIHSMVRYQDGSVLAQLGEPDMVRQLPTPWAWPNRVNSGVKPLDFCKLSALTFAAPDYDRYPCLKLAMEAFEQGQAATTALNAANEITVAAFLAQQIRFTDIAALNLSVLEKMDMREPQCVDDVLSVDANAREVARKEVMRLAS
# METHOD SUMMARY: Enzymatic activity of yaeM gene product (NADPH decrease, absorbance at 340 nm)
# Assay type: biochemical, E. coli
# CONDITION NOTES: additive at 1 mol/l; N.D. = no activity was detected; 1 unit = activity to oxidize 1 mmol of NADPH per minute
Listed here are molecules together with their documented Specific Activity.
State just the number; it will be interpreted in units/mg protein.

Record excerpt, results attached:
> print(dat)
           structure.smiles   unit.annotation  obs.value
1  O=S(=O)([O-])[O-].[Ni+2]  units/mg protein        0.2
2        [Cl-].[Cl-].[Mg+2]  units/mg protein        4.0
3        [Ca+2].[Cl-].[Cl-]  units/mg protein        0.2
4  O=S(=O)([O-])[O-].[Zn+2]  units/mg protein        0.3

Now turn to the next molecule.
Param item = [Cl][Mn][Cl] ; retrieve measured Specific Activity.
11.8
